system: KB; assay: Antitumor activity against human KB cells by MTT assay; format: functional, cell-based
Labelling: IC50 reported below 10 µg/mL becomes MET; at or above becomes NOT MET.

molSmiles | categoryLabel
CSc1nc2n(C)c3ccc(C)cc3[n+]([O-])c-2c(=O)n1 | NOT MET
CSc1nc2nc3c(C)cc(C)cc3[n+]([O-])c2c(=O)[nH]1 | NOT MET
COc1ccc2c(c1)[n+]([O-])c1c(=O)nc(N3CCCCC3)nc-1n2C | NOT MET
Nc1ccn([C@@H]2O[C@H](CO)[C@@H](O)[C@@H]2O)c(=O)n1 | MET
CSc1nc2n(C)c3cc(C)c(C)cc3[n+]([O-])c-2c(=O)n1 | NOT MET
COc1ccc2c(c1)[n+]([O-])c1c(=O)nc(SC)nc-1n2C | NOT MET
CSc1nc2n(C)c3c(C)cccc3[n+]([O-])c-2c(=O)n1 | MET
Cc1ccc2c(c1)[n+]([O-])c1c(=O)nc(NCCO)nc-1n2C | MET
CSc1nc2nc3ccccc3[n+]([O-])c2c(=O)n1C | MET

====

// values below are reported IC50
system: KB; experiment: Antitumor activity against human KB cells by MTT assay; assay type: functional, cell-based
metricName: IC50 (µg/mL)

molSmiles | resultUnits | recordedNumber
CCn1c2nc(SC)nc(=O)c-2[n+]([O-])c2ccccc21 | µg/mL | 8.19
Cn1c2nc(=O)[nH]c(=O)c-2nc2ccccc21 | µg/mL | 2.1
CN(C)c1nc2nc3ccccc3nc2c(=O)[nH]1 | µg/mL | 63.1
CSc1nc2nc3c(C)cc(C)cc3[n+]([O-])c2c(=O)n1C | µg/mL | 14.2
COc1ccc2c(c1)[n+]([O-])c1c(=O)[nH]c(=O)nc-1n2C | µg/mL | 6.2
CCn1c2nc(=O)[nH]c(=O)c-2nc2ccccc21 | µg/mL | 1.89

====

test system: KB; test: Antitumor activity against human KB cells by MTT assay; assay type: functional, cell-based
// values below are reported IC50

molSmiles | testedOn | IC50
COc1ccc2c(c1)n(C)c1nc(SC)nc(=O)c-1[n+]2[O-] | KB | 12.5 µg/mL
CSc1nc2n(C)c3ccc(Cl)cc3[n+]([O-])c-2c(=O)n1 | KB | 10.8 µg/mL
CSc1nc2nc3ccccc3[n+]([O-])c2c(=O)[nH]1 | KB | 6.76 µg/mL
CCOC(=O)Cn1c(SC)nc2nc3ccccc3[n+]([O-])c2c1=O | KB | 54.8 µg/mL
Cc1ccc2c(c1)[n+]([O-])c1c(=O)nc(NC3CCCCC3)nc-1n2C | KB | 33.7 µg/mL
CNc1nc2n(C)c3ccccc3cc-2c(=O)n1 | KB | 14.5 µg/mL
COc1ccc2nc3nc(SC)[nH]c(=O)c3[n+]([O-])c2c1 | KB | 5.35 µg/mL
CCn1c2nc(NCC(C)C)nc(=O)c-2[n+]([O-])c2ccccc21 | KB | 8.1 µg/mL
